experimentalDetails: in vitro stability in 10% human plasma, LC-MS/MS
Format: in vitro ADME
conditionDetails: room temperature, read-out: time at which 50% remains (converted)

substance	half-life at 100 ng/ml
Ac-WVTHQLAGLLSQSGGVVRKNFVPTDVGPFAF-NH2 [SEQ ID NO:39]	~1 h

---

experimentalDetails: rat pharmacokinetic studies
conditionDetails: rat, SC, 2 mg/kg; mean, n = 3
PEG = not defined here
The entries below are paired with their reported AUC0-t.
endpointLabel: AUC0-t (ng·h/mL)

substance	valueUnit	numericValue
SEQ ID NO: 26: PEGylated double homoarginine analog (WVTHXLAGLLSXSGGVVRKNFVPTDVGPFAF; PEGylated; homoarginine residues; CGRP peptide; MOD_RES (1)..(1): …ON; MISC_FEATURE (5)..(5): xaa=homoarginine; MISC_FEATURE (12)..(12): xaa=homoarginine; MISC_FEATURE (19)..(19): PEGylated; MOD_RES (31)..(31): AMIDATION)	ng·h/mL	1188
SEQ ID NO: 32: PEGylated R11Cit, R18Cit analog (product of SEQ ID NO:31) (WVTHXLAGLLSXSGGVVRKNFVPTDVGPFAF; PEGylated; citrulline at 11 and 18; CGRP peptide; MOD_RES (1)..(1): …ON; MISC_FEATURE (5)..(5): xaa=citrulline; MISC_FEATURE (12)..(12): xaa=citrulline; MISC_FEATURE (19)..(19): PEGylated; MOD_RES (31)..(31): AMIDATION)	ng·h/mL	18933
SEQ ID NO: 15: 20 kDa PEG conjugate of SEQ ID NO:7 (reductive alkylation) (Ac-WVTHRLAGLLSRSGGVVRK(20 kDa PEG)NFVPTDVGPFAF-NH2)	ng·h/mL	1264
SEQ ID NO: 40: double glutamine analog PEGylated through amine linkage (Ac-WVTHQLAGLLSQSGGVVRK(PEG)NFVPTDVGPFAF-NH2; reading uncertain)	ng·h/mL	1212

Hello, the source for this data is patent US8168592B2, in case you need it.
